Data origin: the supplement of paper PMC10567573

Assay: protein stability index of a GFP-peptide fusion (GPS, HEK-293T) (PSI 1-6); higher = more stable;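 also: 24-mer peptide tiles fused after GFP, lentivirally expressed, FACS-sorted into six equal bins by GFP/DsRed ratio, decoded by Illumina sequencing, PSI is the read-weighted mean bin number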
Conditions: treatment: MLN4924 1 uM, 8 h; c terminus: a fixed tail appended
protein stability index by entry:
Lab note: jot down the number only; don't add units.

Req: Quick check: protein stability index of SGGSGGRGTGQLNRFVQLSGRPHL [KLHDC10] ?
Resp: 3.65

Req: Can you check RIHSGEKPYGCVECGKAFSRSSIL [ZNF24] next?
Resp: 2.83

Req: Can you check RDGGLCVNDLAVGLRRLGLHRTEG [SLC25A25] next?
Resp: 2.99

Req: Can you check IATLRVALPSVMRFCCCVAVIYLG [MCOLN1] next?
Resp: 3.15

Req: Can you check ASTPAQTAAGGQGGPGGPGSDKQQ [NR2F2] next?
Resp: 5.59

Req: Can you check ASQFLASASSSTTCCESTQRSVSD [IRX6] next?
Resp: 5.09

Req: Can you check KCKAEHDQLLLNYAKKESDLNGAQ [LMNB1] next?
Resp: 4.01
